# Test system: Setaria viridis
# assay info: Test on herbicidal activity by foliar application
# Type: in vivo
# run conditions: foliar spray, 1 kg/ha, plants at 1-2 leaf stage in pots, evaluated 14 days after spraying
parameter measured: Herbicidal activity, Setaria viridis

Parameters: items (list). Returns: Herbicidal activity, Setaria viridis for each item.
1. COc1cc(Cl)nc(C(=O)NS(=O)(=O)c2ccccc2S(C)(=O)=O)c1
2. COc1ccc(C(=O)NS(=O)(=O)c2c(Cl)cccc2Cl)nc1Cl
3. CN(C)S(=O)(=O)c1ccccc1S(=O)(=O)NC(=O)c1cccc(Cl)n1
4. COc1cc(Cl)nc(C(=O)NS(=O)(=O)c2c(F)cccc2F)c1

Given back:
1. 5 (90% or more inhibition)
2. 2 (30% or more-50% inhibition)
3. 5 (90% or more inhibition)
4. 3 (50% or more-70% inhibition)
